Numbers sourced from patent US20130156845A1.

I'd be grateful if you could share measured EC50 for these entries.
Test system: human PTEN
Assay: PTEN expression in HeLa cells, ssRNAs vs siRNAs (Example 62)
Type: cell-based
Conditions: single stranded antisense compound, PTEN mRNA, read-out: EC50 (nM) ssRNA
[Rc] = thymidine, 2',5'-bis modified nucleoside Rc; [R5Me] = (R)-5'-methyl-2'-deoxythymidine; e = 2'-O-(2-methoxyethyl) (MOE); m = 2'-O-methyl; {P} = phosphate; f = 2'-fluoro
Answers are plain numbers, in nM.

Some entries whose results are on file:
Notebook: P-UmUfGmUfCmUfCmUfGmGfUmCfCmUfUmAfCmUfUmAeAe (antisense UUGUCUCUGGUCCUUACUUAA; sugars from the 5' end mfmfmfmfmfmfmfmfmfmee, 5' {P}, backbone not given here) [ISIS 418046, modified ssRNA targeting PTEN] , EC50 read as 2

Notebook: P-TRUfGfUfCfUfCfUfGfGfUfCfCfUfUfAfCfUfUfAeAe (antisense TUGUCUCUGGUCCUUACUUAA; sugars from the 5' end [R5Me]1 f18 e2, 5' {P}, backbone not given here) [ISIS 432356, modified ssRNA targeting PTEN] , EC50 read as 3

Notebook: Py-^meUmUfGmUfCmUfCmUfGmGfUmCfCmUfUmAfCmUfUmAeAe (antisense UUGUCUCUGGUCCUUACUUAA; 5'-methylenephosphonate, 2'-F/2'-OMe, MOE, chemistry not fully specified) [ISIS 467076, modified ssRNA targeting PTEN, 5′-methylenephosphonate] , EC50 read as 6

Next:
Notebook: P-TRcUfGmUfCmUfCmUfGmGfUmCfCmUfUmAfCmUfUmAeAe (antisense TUGUCUCUGGUCCUUACUUAA; sugars from the 5' end [Rc]fmfmfmfmfmfmfmfmfmee, 5' {P}, backbone not given here) [ISIS 447581, modified ssRNA targeting PTEN] , EC50 read as 1
